experiment: NCI Yeast Anticancer Drug Screen. Data for the mlh1 rad18 strain (AID 175); details: S. cerevisiae mlh1 rad18 strain growth inhibition; at 50.0 µM; active compounds read high
The panel holds about 79,000 compounds, 15% with a hit somewhere; the sample as a whole holds those more often.
growth inhibition for assorted compounds
API: value field is a number in %; no unit string.

Answered examples (4):
>>> numeric_result("Cc1cc(N(CCC#N)CCC#N)ccc1/C(N=Nc1ccc(Cl)cc1)=N\\NC(=O)c1cc(Cl)ccc1O")
-59.5
>>> numeric_result("c1ccc(CC/C(=N/N=C(\\CCc2ccccc2)c2ccccc2)c2ccccc2)cc1")
7.6
>>> numeric_result("CCC(CO)(CO)CBr")
9.55
>>> numeric_result("COc1ccc(OC)c(NCC(=O)Nn2cnc3ccc(S(=O)(=O)Nc4cc(OC)ccc4OC)cc3c2=O)c1")
37.1

Request: Name the recorded growth inhibition for CSC(=S)S(=O)(=O)C12CC3CC(CC(C3)C1)C2 .
Response: 92.6

Request: Name the recorded growth inhibition for Cn1c(=O)c2[nH]c(/N=N/N3CCN(CCO)CC3)nc2n(C)c1=O .
Response: 9.35

Request: Name the recorded growth inhibition for Cc1cccc(C)c1NN .
Response: 24.2

Request: Name the recorded growth inhibition for COc1ccc(/C=C(\C#N)c2ccccc2NC(C)=O)cc1 .
Response: 19.8

Request: Name the recorded growth inhibition for CC(=O)Nc1ccc2c(c1)C(=O)c1cc(Cl)ccc1-2 .
Response: -9.35

Request: Name the recorded growth inhibition for [N-]=[N+]=NC12CC3CC4C5CC(CC41)CC2[C@H]5C3 .
Response: -14.4

Request: Name the recorded growth inhibition for Cn1ncc2c(=O)[nH]c(=S)[nH]c21 .
Response: 3.6

Request: Name the recorded growth inhibition for Nc1nc(NCCO)c(N=O)c(=O)[nH]1 .
Response: 13.4
